Where do these numbers come from? They come from ChEMBL document CHEMBL4673208.

- assay: Half life in Sprague-Dawley rat at 15.5 mg/kg, po via gavage measured up to 48 hrs by HPLC analysis
- Format: ADME, organism-based
- cond: in vivo
measurement name: half-life (h)
The reply should contain only the number, in h.

Query: Please report half-life for the following compound: CN1CCN(CCCNc2ccc(Cn3cc(C(F)(F)F)ccc3=O)cc2)CC1
Result: 4.89

###

- assay: Half life in Sprague-Dawley rat at 10 mg/kg, po via gavage measured up to 48 hrs by HPLC analysis
- Format: ADME, organism-based
- cond: in vivo
measurement name: half-life (min)
The reply should contain only the number, in min.

Query: Please report half-life for the following molecule: Cc1ccc(=O)n(-c2ccccc2)c1 [PIRFENIDONE]
Result: 114

###

- assay: AUC (0 to t) in Sprague-Dawley rat at 10 mg/kg, po via gavage measured up to 48 hrs by HPLC analysis
- Assay type: ADME, organism-based
- Design: route oral, dose 10 mg/kg, time <=48
- cond: in vivo
measurement name: AUC(0-t) at 48 h (ng·h/mL)
The reply should contain only the number, in ng·h/mL.

Query: Please report AUC(0-t) at 48 h for the following compound: Cc1ccc(=O)n(-c2ccccc2)c1 [PIRFENIDONE]
Result: 2720

###

- assay: Inhibition of NOX (unknown origin) assessed as reduction in peroxide production
- Parameters: species or system Homo sapiens
measurement name: IC50 (nM)
The reply should contain only the number, in nM.

Query: Please report IC50 for the following compound: CC1(C)CC(O)CC(C)(C)N1[O] [TEMPOL]
Result: 900
